test: Approximate solubility of ivosidenib freebase in 20 solvent systems at RT; assay type: physicochemical; details: water, thermodynamic from solid, H2O, RT
quantity name: solubility

For record N#Cc1ccnc(N2C(=O)CC[C@H]2C(=O)N(c2cncc(F)c2)[C@H](C(=O)NC2CC(F)(F)C2)c2ccccc2Cl)c1 the listed solubility is < 1260 µg/mL

---

assay: Approximate solubility of ivosidenib freebase in 20 solvent systems at RT; format: physicochemical; conditions: organic solvent or mixture, thermodynamic from solid, DMA, RT
quantity name: solubility

For record N#Cc1ccnc(N2C(=O)CC[C@H]2C(=O)N(c2cncc(F)c2)[C@H](C(=O)NC2CC(F)(F)C2)c2ccccc2Cl)c1 [ivosidenib] the listed solubility is > 24.5 mg/mL

---

assay: Approximate solubility of ivosidenib freebase in 20 solvent systems at RT; format: physicochemical; details: organic solvent or mixture, thermodynamic from solid, ACN, RT
quantity name: solubility

For record N#Cc1ccnc(N2C(=O)CC[C@H]2C(=O)N(c2cncc(F)c2)[C@H](C(=O)NC2CC(F)(F)C2)c2ccccc2Cl)c1 the listed solubility is > 36.8 mg/mL

---

test: Solubility of solid state forms in methanol; format: physicochemical; details: organic solvent or mixture, thermodynamic from solid, compared with ~70 mg/mL AG-120 in the SDI spray solution, read-out: solubility
quantity name: solubility

For record N#Cc1ccnc(N2C(=O)CC[C@H]2C(=O)N(c2cncc(F)c2)[C@H](C(=O)NC2CC(F)(F)C2)c2ccccc2Cl)c1 [Form M] the listed solubility is ~110 mg/mL

---

experiment: Approximate solubility of ivosidenib freebase in 20 solvent systems at RT; format: physicochemical; settings: organic solvent or mixture, thermodynamic from solid, EtOH, RT
quantity name: solubility

For record N#Cc1ccnc(N2C(=O)CC[C@H]2C(=O)N(c2cncc(F)c2)[C@H](C(=O)NC2CC(F)(F)C2)c2ccccc2Cl)c1 the listed solubility is > 39.4 mg/mL

---

assay: Approximate solubility of ivosidenib freebase in 20 solvent systems at RT; assay type: physicochemical; conditions: organic solvent or mixture, thermodynamic from solid, CHCl3, RT
quantity name: solubility

For record N#Cc1ccnc(N2C(=O)CC[C@H]2C(=O)N(c2cncc(F)c2)[C@H](C(=O)NC2CC(F)(F)C2)c2ccccc2Cl)c1 the listed solubility is > 38.2 mg/mL

---

Assay: Approximate solubility of ivosidenib freebase in 20 solvent systems at RT
Type: physicochemical
Conditions: organic solvent or mixture, thermodynamic from solid, NMP, RT
Description: Approximate solubility of ivosidenib freebase was determined in 20 solvent systems at RT. In the experiment, ˜2 mg of ivosidenib was added into a 3-mL glass vial, followed by the addition of corresponding solvent. The solvent was added by 100 μL step wise until the solution was visually clear or a total volume of 2 mL was reached. This solubility information was used to select solvents for the polymorph screening.
quantity name: solubility

For record N#Cc1ccnc(N2C(=O)CC[C@H]2C(=O)N(c2cncc(F)c2)[C@H](C(=O)NC2CC(F)(F)C2)c2ccccc2Cl)c1 [ivosidenib] the listed solubility is > 42 mg/mL

---

assay: Approximate solubility of ivosidenib freebase in 20 solvent systems at RT; format: physicochemical; conditions: organic solvent or mixture, thermodynamic from solid, 2-MeTHF, RT
quantity name: solubility

For record N#Cc1ccnc(N2C(=O)CC[C@H]2C(=O)N(c2cncc(F)c2)[C@H](C(=O)NC2CC(F)(F)C2)c2ccccc2Cl)c1 [ivosidenib] the listed solubility is > 41.4 mg/mL
